# tested-target: human melanocortin-4 receptor (human, UniProt P32245 1-332)
# Sequence (P32245 whole entry): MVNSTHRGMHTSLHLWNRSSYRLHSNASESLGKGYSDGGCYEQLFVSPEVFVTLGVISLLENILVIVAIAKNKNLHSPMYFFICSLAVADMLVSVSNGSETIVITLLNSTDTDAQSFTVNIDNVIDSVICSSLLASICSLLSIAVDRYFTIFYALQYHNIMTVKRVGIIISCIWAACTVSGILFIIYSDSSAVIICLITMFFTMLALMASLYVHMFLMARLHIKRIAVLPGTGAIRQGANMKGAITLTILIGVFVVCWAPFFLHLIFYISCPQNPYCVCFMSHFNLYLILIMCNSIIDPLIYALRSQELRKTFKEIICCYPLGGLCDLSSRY
# assay-remarks: cell-based or functional assay
Positions of bridges follow the written chain, without caps; N, C: chain ends. Non-standard residues stand in square brackets, D forms with d. dPhe(2-CF3) = N[C@H](Cc1ccccc1C(F)(F)F)C(=O)O; dPhe(2-Cl) = N[C@H](Cc1ccccc1Cl)C(=O)O; dPhe(2-Me) = Cc1ccccc1C[C@@H](N)C(=O)O; Orn = NCCC[C@H](N)C(=O)O
Consider the following binders; for each one, report its Intrinsic Activity, cAMP, 0.1 ng/mL Doxycycline.
Numeric only. Scale: %

Supply recorded Intrinsic Activity, cAMP, 0.1 ng/mL Doxycycline for Ac-REN[dPhe(2-CF3)]RW[Orn]-NH2 (lactam 2-7, also called No. 116) [Ac-Arg-cyclo(Glu-Asn-D-Phe(2-CF3)-Arg-Trp-Orn)-NH2] here.
77

Supply recorded Intrinsic Activity, cAMP, 0.1 ng/mL Doxycycline for Ac-REQ[dPhe(2-Me)]RW[Orn]-NH2 (lactam 2-7, also called No. 110) [Ac-Arg-cyclo(Glu-Gln-D-Phe(2-Me)-Arg-Trp-Orn)-NH2] here.
84

Supply recorded Intrinsic Activity, cAMP, 0.1 ng/mL Doxycycline for XDQXRWK (N-terminal Ac; D-Arg 1; D-Phe(4-F) 4; lactam Asp 2-Lys 7; C-terminal NH2, also called No. 83) [Ac-D-Arg-cyclo(Asp-Gln-D-Phe(4-F)-Arg-Trp-Lys)-NH2] here.
78

Supply recorded Intrinsic Activity, cAMP, 0.1 ng/mL Doxycycline for XDQXRWK (N-terminal Ac; D-Arg 1; D-Phe(2-F) 4; lactam Asp 2-Lys 7; C-terminal NH2, also called No. 82) [Ac-D-Arg-cyclo(Asp-Gln-D-Phe(2-F)-Arg-Trp-Lys)-NH2] here.
79

Supply recorded Intrinsic Activity, cAMP, 0.1 ng/mL Doxycycline for Ac-REN[dPhe(2-Cl)]RW[Orn]-NH2 (lactam 2-7; SMILES CC(=O)N[C@@H](CCCNC(=N)N)C(=O)N[C@H]1CCC(=O)NCCC[C@@H](C(N)=O)NC(=O)[C@H](Cc2c[nH]c3ccccc23)NC(=O)[C@H](CCCNC(=N)N)NC(=O)[C@@H](Cc2ccccc2Cl)NC(=O)[C@H](CC(N)=O)NC1=O, also called No. 84) [Ac-Arg-cyclo(Glu-Asn-D-Phe(2-Cl)-Arg-Trp-Orn)-NH2] here.
78
